Biological target: NikA (Escherichia coli, UniProt P33590)
Construct: wild type NikA, purified from periplasm (56 304 Da)
Sequence (P33590 23-524): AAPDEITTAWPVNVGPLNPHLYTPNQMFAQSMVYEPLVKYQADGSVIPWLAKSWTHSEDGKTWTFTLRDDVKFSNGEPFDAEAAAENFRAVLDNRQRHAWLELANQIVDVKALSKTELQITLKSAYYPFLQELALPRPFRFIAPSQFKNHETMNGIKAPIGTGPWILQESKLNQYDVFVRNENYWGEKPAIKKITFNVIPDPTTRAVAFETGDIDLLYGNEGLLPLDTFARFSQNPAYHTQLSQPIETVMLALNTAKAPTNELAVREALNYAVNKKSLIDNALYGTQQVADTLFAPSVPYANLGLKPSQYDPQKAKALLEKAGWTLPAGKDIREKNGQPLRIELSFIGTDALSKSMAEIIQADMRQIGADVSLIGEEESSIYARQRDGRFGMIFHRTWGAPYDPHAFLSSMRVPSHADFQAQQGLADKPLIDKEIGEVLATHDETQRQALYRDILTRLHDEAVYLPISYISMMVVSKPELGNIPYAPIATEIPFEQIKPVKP
Experiment: isothermal titration calorimetry, one-site model
Parameter: pKd
# pKd is unitless: minus log10 of the molar concentration; print number only

O=C([O-])CN(CCN(CC(=O)[O-])CC(=O)O)CC(=O)[O-].[In+3] : 4.76

Value of measured pKd for the entry `O=C([O-])CN(CCN(CC(=O)[O-])CC(=O)O)CC(=O)[O-].[Fe+3]` : 5.13
